tested on: Mycobacterium tuberculosis; test: Antibacterial activity against Mycobacterium tuberculosis H37Rv after 6 days by Alamar blue dye-based colorimetric assay; assay type: functional; conditions: 144 h
Exercise: for every item that follows, state its recorded MIC90.
Dear colleague, please return just the value in µg/mL, with no unit written.

Prompt: Requested read-out: MIC90. Entry: C=C/C(C)=C/[C@@]1(C)SC(=O)C(C(=O)CCC)=C1O
Response: 100

Prompt: Requested read-out: MIC90. Entry: C=C/C(C)=C/[C@@]1(C)SC(=O)C(C(=O)c2ccccc2C(=O)O)=C1O
Response: 50

Prompt: Requested read-out: MIC90. Entry: C=C/C(C)=C/[C@@]1(C)SC(=O)C(C(C)=O)=C1O
Response: 12.5

Prompt: Requested read-out: MIC90. Entry: C=C/C(C)=C/[C@@]1(C)SC(=O)C(CCCCn2cc(CNC(=O)c3ccc(NS(=O)(=O)c4ccc(F)cc4)cc3)nn2)=C1O
Response: 100

Prompt: Requested read-out: MIC90. Entry: C=C/C(C)=C/[C@@]1(C)SC(=O)C(CCCN=[N+]=[N-])=C1O
Response: 100

Prompt: Requested read-out: MIC90. Entry: C=C/C(C)=C/[C@@]1(C)SC(=O)C(C(=O)CCCCCCCCCCCCCCC)=C1O
Response: 100

Prompt: Requested read-out: MIC90. Entry: C=C/C(C)=C/[C@@]1(C)SC(=O)C(C(=O)OC)=C1O
Response: 100

These entries and their values trace back to ChEMBL document CHEMBL4425098.
